molecular target: GLP-1 receptor (GLP-1R), primary cAMP assay (human, UniProt P43220 24-463); assay: cell-based or functional assay
Starred links: 1 amine or outer side, 2 acyl side, 3 side chain; linkers in the order of their positions; H or OH if unused. Non-standard residues stand in square brackets, D forms with d. Groups on a side chain read outwards from the residue. Primed or numbered codes have the meaning given here. No end group written: not given here. *: point of attachment. γGlu = O=C(O)[C@H](CCC(=O)[*:2])N[*:1]; Palmitoyl = CCCCCCCCCCCCCCCC(=O)*; αMeF = C[C@](N)(Cc1ccccc1)C(=O)O; αMeK = C[C@](N)(CCCCN)C(=O)O; Lauroyl = CCCCCCCCCCCC(=O)*; αMeS = C[C@](N)(CO)C(=O)O; Nle = CCCC[C@H](N)C(=O)O; PEG2′ = not defined here; Aib = CC(C)(N)C(=O)O
experimental-endpoint: Primary assay EC50 (cAMP) Mean (nM)
Provide the reading as a plain figure in nM.

Consider the binder H[Aib]EGS[αMeF]TSDV[αMeS]SYK([PEG2′-PEG2′-γGlu-Palmitoyl])EGEAA[αMeK]EFIAWK([PEG2′-PEG2′-γGlu-Palmitoyl])VEGG-NH2 [SEQ ID NO: 273] . State its measured Primary assay EC50 (cAMP) Mean.
0.762

Consider the binder H[Aib]EGS[αMeF]TSDV[αMeS]SK([PEG2′-PEG2′-γGlu-Lauroyl])LEGEAA[αMeK]E[αMeF]IAK([PEG2′-PEG2′-γGlu-Lauroyl])VVEGG-NH2 [SEQ ID NO: 405] . State its measured Primary assay EC50 (cAMP) Mean.
0.0039

Consider the binder H[Aib]EGS[αMeF]TSDV[αMeS]SK([PEG2′-PEG2′-γGlu-Lauroyl])LEGEAA[αMeK]E[Nle]IAK([PEG2′-PEG2′-γGlu-Lauroyl])VVEGG-NH2 [SEQ ID NO: 407] . State its measured Primary assay EC50 (cAMP) Mean.
0.002

Consider the binder H[Aib]EGS[αMeF]TSDV[αMeS]SYK([PEG2′-PEG2′-γGlu-Lauroyl])EGEAA[αMeK]EFIAK([PEG2′-PEG2′-γGlu-Lauroyl])VVEGG-NH2 [SEQ ID NO: 269] . State its measured Primary assay EC50 (cAMP) Mean.
0.0046

Consider the binder H[Aib]EGS[αMeF]TSDVSK([PEG2′-PEG2′-γGlu-Lauroyl])YLEGEAA[αMeK]EFIK([PEG2′-PEG2′-γGlu-Lauroyl])WVVEGG-NH2 [SEQ ID NO: 249] . State its measured Primary assay EC50 (cAMP) Mean.
0.0055

Consider the binder H[Aib]EGS[αMeF]TSDV[αMeS]SK([PEG2′-PEG2′-γGlu-Palmitoyl])LEGEAA[αMeK]EFIK([PEG2′-PEG2′-γGlu-Palmitoyl])WVVEGG-NH2 [SEQ ID NO: 265] . State its measured Primary assay EC50 (cAMP) Mean.
0.0336

Consider the binder H[Aib]EGS[αMeF]TSDV[αMeS]SYK([PEG2′-PEG2′-γGlu-Lauroyl])EGEAA[αMeK]EFIAWK([PEG2′-PEG2′-γGlu-Lauroyl])VEGG-NH2 [SEQ ID NO: 270] . State its measured Primary assay EC50 (cAMP) Mean.
0.0329

Consider the binder H[Aib]EGS[αMeF]TSDV[αMeS]SK([PEG2′-PEG2′-γGlu-Palmitoyl])LEGEAA[αMeK]E[αMeF]IAK([PEG2′-PEG2′-γGlu-Palmitoyl])VVEGG-NH2 [SEQ ID NO: 409] . State its measured Primary assay EC50 (cAMP) Mean.
0.0361
